# target.desc: human GPR120 (Homo sapiens)
# Construct: host or cells: HEK293 cells coexpressing Gqi5
# test.name: Intracellular Ca2+ (FLIPR Calcium 4, Flexstation) assay in human GPR120 stable HEK293 cell line coexpressing Gqi5
# Assay type: cell-based
# assay.conditions: 5 μM compound compared to the maximal activity of GW9508 at 6.7 μM (100%)
Classes are defined on % Activity at 5 μM with ranges bucket A (below 70%), bucket B (70% to below 90%), bucket C (90% or more)

Task item: Which band does O=C(O)CCc1cc(F)c(OCc2ncsc2-c2ccccc2)c(F)c1 fall in?
Reply: bucket B

Task item: Then Cn1ncc(COc2c(F)cc(CCC(=O)O)cc2F)c1-c1ccccc1 ?
Reply: bucket B

Task item: Param item: Cc1cc(COc2ccc(CC(C)CC(=O)O)cc2)n(-c2ccc(Cl)cc2)n1 (stereo not drawn)
Reply: bucket C

Task item: Continue with O=C(O)CCc1cc(F)c(OCc2snnc2-c2ccc(F)cc2)c(F)c1
Reply: bucket B

Task item: Same thing, different compound: CCc1ccc(-n2nc(C)cc2COc2c(F)cc(C[C@@H](C)C(=O)O)cc2F)cc1
Reply: bucket C

Task item: # repeat for Cc1cc(COc2c(F)cc(CC(C)C(=O)O)cc2F)n(-c2ccccn2)n1 (stereo not drawn)
Reply: bucket A

Task item: Would you kindly repeat that for CC(Cc1cc(F)c(OCc2c(C(F)(F)F)nn(C)c2Oc2ccccc2)c(F)c1)C(=O)O (stereo not drawn) ?
Reply: bucket C

Task item: Can you handle Cc1onc(-c2ccccc2)c1COc1c(F)cc(CCC(=O)O)cc1F next?
Reply: bucket A

Task item: Now consider Cc1cc(COc2ccc3c(c2)CCC(CC(=O)O)C3)n(-c2ccc(Cl)cc2)n1 (stereo not drawn) and answer again.
Reply: bucket C

Task item: Another: Cc1onc(-c2ccccc2)c1COc1c(F)cc(C2CC2C(=O)O)cc1F (stereo not drawn)
Reply: bucket A

Task item: Similarly, Cc1cc(COc2c(F)cc(CC(C)C(=O)O)cc2F)n(-c2ccc(C)c(C)c2)n1 (stereo not drawn) ?
Reply: bucket C

Task item: Then this compound: O=C(O)CCc1cc(F)c(OCc2snnc2-c2cccc(Cl)c2)c(F)c1
Reply: bucket B

----------
Kindly state % Activity at 5 μM for each of the entries shown.
# target.desc: human GPR120 (Homo sapiens, UniProt Q5NUL3)
# Construct: host or cells: HEK293 cells coexpressing Gqi5
# Sequence (Q5NUL3 1-361): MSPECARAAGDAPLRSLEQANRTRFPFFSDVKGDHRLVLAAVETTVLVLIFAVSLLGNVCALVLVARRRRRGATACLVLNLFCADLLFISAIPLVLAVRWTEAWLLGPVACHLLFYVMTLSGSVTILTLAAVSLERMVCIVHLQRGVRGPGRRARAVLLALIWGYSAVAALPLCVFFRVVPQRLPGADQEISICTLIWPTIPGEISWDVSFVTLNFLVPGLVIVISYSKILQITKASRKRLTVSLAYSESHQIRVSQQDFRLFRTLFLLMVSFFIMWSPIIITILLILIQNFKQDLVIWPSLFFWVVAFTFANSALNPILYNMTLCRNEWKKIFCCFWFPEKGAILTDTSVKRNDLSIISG
# test.name: Intracellular Ca2+ (FLIPR Calcium 4, Flexstation) assay in human GPR120 stable HEK293 cell line coexpressing Gqi5
# Type: cell-based
# assay.conditions: 5 μM compound compared to the maximal activity of GW9508 at 6.7 μM (100%)
Please reply with the bare figure in % and do not write the unit itself.

Task item: Given COc1cc(CCC(=O)O)ccc1OCc1cc(C)nn1-c1ccc(Cl)cc1 [Example 133] , state its recorded % Activity at 5 μM.
Reply: 107

Task item: Try the compound Cc1cc(COc2c(F)cc(CC(C)C(=O)O)cc2F)c(-c2ccccc2)o1 (stereo not drawn) [Example 116]
Reply: 115

Task item: Let us now turn to Cc1onc(-c2ccccc2)c1COc1ccc2c(c1)CCC2CC(=O)O (stereo not drawn) [Example 58]
Reply: 66

Task item: What do we get for C/C(=C\C(=O)O)Cc1ccc(OCc2snnc2-c2ccc(Cl)cc2)cc1 [Example 69] ?
Reply: 87

Task item: // query: Cc1onc(-c2ccc(F)cc2)c1COc1c(F)cc(CCC(=O)O)cc1F [Example 18]
Reply: 77

Task item: Please answer likewise for Cc1onc(-c2ccc(Cl)cc2)c1COc1c(F)cc(CCC(=O)O)cc1F [Example 24]
Reply: 92

Task item: Can you handle Cc1noc(C)c1COc1c(F)cc(CCC(=O)O)cc1F [Example 23] next?
Reply: 63

Task item: Now the compound Cc1cc(COc2c(F)cc(CC(C)C(=O)O)cc2F)n(-c2ccc(C(F)(F)F)cc2)n1 (stereo not drawn) [Example 77]
Reply: 95

Task item: Check Cc1cc(COc2cc3c(cc2F)C(CC(=O)O)CC3)n(-c2ccc(Cl)cc2)n1 (stereo not drawn) [Example 106] too.
Reply: 88

----------
Kindly state % Activity at 5 μM for each of the entries shown.
# target.desc: human GPR120 (Homo sapiens, UniProt Q5NUL3)
# Construct: host or cells: HEK293 cells coexpressing Gqi5
# test.name: Intracellular Ca2+ (FLIPR Calcium 4, Flexstation) assay in human GPR120 stable HEK293 cell line coexpressing Gqi5
# Assay type: cell-based
# assay.conditions: 5 μM compound compared to the maximal activity of GW9508 at 6.7 μM (100%)
// units = %; emit number, no label

Task item: May I ask what % Activity at 5 μM has been recorded for Cc1cc(COc2ccc(CCC(C)CC(=O)O)cc2)n(-c2ccc(Cl)cc2)n1 (centres unmarked) [Example 71] ?
Reply: 100

Task item: And what about the molecule O=C(O)CSc1ccc(OCc2snnc2-c2ccccc2)cc1 [Example 29] ?
Reply: 85

Task item: Request: Cc1cc(COc2ccc(C=C3CC(C(=O)O)C3)cc2)n(-c2ccc(Cl)cc2)n1 (centres unmarked) [Example 111]
Reply: 80

Task item: Ok, now CCCc1ccc(-n2nc(C)cc2COc2c(F)cc(CC(C)C(=O)O)cc2F)cc1 (centres unmarked) [Example 105]
Reply: 99

Task item: Continue with CCc1cc(COc2c(F)cc(CC(C)C(=O)O)cc2F)n(-c2ccc(Cl)cc2)n1 (centres unmarked) [Example 101]
Reply: 113

Task item: Also, Cc1cc(COc2c(F)cc(CC(C)C(=O)O)cc2F)n(-c2cccc(C(C)C)c2)n1 (centres unmarked) [Example 85] please.
Reply: 95

Task item: Now consider Cc1cc(COc2c(F)cc(CCC(=O)O)cc2F)n(-c2ccc(F)c(F)c2)n1 [Example 53] and answer again.
Reply: 84

Task item: Thanks! And Cc1cc(COc2c(F)cc(CCC(=O)O)cc2F)n(C(C)C)n1 [Example 25] ?
Reply: 92

----------
# target.desc: human GPR120 (Homo sapiens)
# Construct: host or cells: HEK293 cells coexpressing Gqi5
# test.name: Intracellular Ca2+ (FLIPR Calcium 4, Flexstation) assay in human GPR120 stable HEK293 cell line coexpressing Gqi5
# Type: cell-based
# assay.conditions: 5 μM compound compared to the maximal activity of GW9508 at 6.7 μM (100%)
# Experimental: Human GPR120 stable cell line was purchased from Multispan Inc (26219 Eden Landing Road, Hayward, Calif. 94545). This GPR120 cell line was generated in HEK293 cells coexpressing Gqi5. […] The concentration of intracellular Ca^2+ was measured as described below. […] Compounds were dissolved in 100% DMSO and diluted to desired concentrations with assay buffer and placed in Flexstation simultaneously with the cell plate for 20 minute incubation at 37° C. prior to reading. […]
Task for the reader: assign each of the following compounds its reported % Activity at 5 μM.
Field format: number, assumed %, no unit text.

Task item: Give the measured % Activity at 5 μM of Cc1cc(COc2ccc(C(C)(C)CC(=O)O)cc2)n(-c2ccc(Cl)cc2)n1 [Example 125] .
Reply: 47

Task item: Record: CCc1ccc(-n2nc(C)cc2COc2ccc(CCCC(=O)O)cc2)cc1 [Example 129]
Reply: 99

Task item: Item: Cc1cc(COc2c(F)cc(CC(C)C(=O)O)cc2F)n(-c2ccc(Cl)c(C)c2)n1 (centres unmarked) [Example 94]
Reply: 108

Task item: Likewise for CC(Cc1cc(F)c(OCc2cc(C(F)(F)F)nn2-c2ccc(Cl)cc2)c(F)c1)C(=O)O (centres unmarked) [Example 117] ?
Reply: 105

Task item: What about O=C(O)C1CC1c1cc(F)c(OCc2snnc2-c2ccccc2)c(F)c1 (centres unmarked) [Example 63] ?
Reply: 76

Task item: Try this compound too: Cc1cc(-c2onc(C)c2COc2c(F)cc(CCC(=O)O)cc2F)no1 [Example 19]
Reply: 69

Task item: // same read-out, input: Cc1cc(COc2ccc3c(c2)CCC3CC(=O)O)n(-c2ccc(Cl)cc2)n1 (centres unmarked) [Example 59]
Reply: 100

Task item: And the next one, Cc1ccc(-n2nc(C)cc2COc2c(F)cc(CC(C)C(=O)O)cc2F)cc1 (centres unmarked) [Example 84] ?
Reply: 106

Task item: Now consider CCc1ccc(-n2nc(C)cc2COc2ccc(CC(C)C(=O)O)cc2C)cc1 (centres unmarked) [Example 95] .
Reply: 100

Task item: Please give the result for CC(C)c1cc(COc2c(F)cc(CCC(=O)O)cc2F)n(-c2ccccc2)n1 [Example 1] too.
Reply: 79

Task item: How about Cc1cc(COc2c(F)cc(CCC(=O)O)cc2F)c(-c2ccccc2)o1 [Example 12] ?
Reply: 70
